Each recorded value in this set is attributed to ChEMBL document CHEMBL1137798.

# target_or_test_system: Human immunodeficiency virus type 1 reverse transcriptase (Human immunodeficiency virus 1)
# condition_set: read-out: IC50 (converted)
Structures can show the parent of a compound that is named as a salt.
measured_quantity: IC50

# annotated cases, reported IC50 shown
compound: COc1cc2c(cc1OC)[C@@]13CCN4CC5=CCO[C@H]6CC(=O)N2[C@H]1[C@H]6[C@H]5C[C@H]43
IC50: > 507 µM

compound: C=C1c2cc3[nH]ccc3cc2CN2CC[C@@H]1/C(=C\C)C2
IC50: > 757 µM

compound: CC(C)[C@](O)(C(=O)OCC1=CC[N+]2([O-])CC[C@@H](O)[C@@H]12)[C@H](C)O (stereo not given in full) [INDICINE N-OXIDE]
IC50: > 634 µM

Memo: CN[C@@H](C)[C@H](O)c1ccccc1 [EPHEDRINE SULFATE] , reported IC50: > 933 µM

Entry under test: C/C=C1/CN(C=O)[C@H]2Cc3c([nH]c4ccccc34)C(=O)C[C@@H]1[C@@H]2C(=O)OC . Its IC50 was > 546 µM

IC50 reading for COc1cc2c(cc1OC)[C@@H]1Cc3ccc(OC)c(O)c3CN1CC2 [TETRAHYDROPALMATRUBINE] : > 586 µM

What the record says about CC[C@]1(O)C[C@@H]2CN(CCc3c([nH]c4ccccc34)[C@@](C(=O)OC)(c3cc4c(cc3OC)N(C)[C@H]3[C@@](O)(C(=O)OC)[C@H](OC(C)=O)[C@]5(CC)C=CCN6CC[C@]43[C@@H]65)C2)C1 : IC50 is > 247 µM

Data point: COc1c2ccoc2nc2c(OC(C)=O)cccc12 ; IC50 = > 777 µM

Per the record, COc1ccc2c(c1O)-c1c(O)c(OC)cc3c1[C@H](C2)[N+](C)(C)CC3 [MAGNOFLORINE CHLORIDE] has IC50 of > 529 µM

Briefly, IC50 measured for C=C(C)[C@@H]1CC[C@]2(CO)CC[C@]3(C)[C@H](CC[C@@H]4[C@@]5(C)CC[C@H](O)C(C)(C)[C@@H]5CC[C@]43C)[C@@H]12 : > 452 µM

----------
Measured pIC50 of individual entries
# target_or_test_system: UniProt:Q72547
# assay_method_text: Inhibition of HIV1 RT using poly A oligo(dT) template primer
Scale: negative log10 of molar concentration, which is what pIC50 denotes.

compound: COc1cc2c[n+](C)c3c4cc5c(cc4ccc3c2cc1OC)OCO5 [NITIDINE CHLORIDE]
target_or_test_system: UniProt:Q72547
reported: 3.89

Could you now consider this next compound?
Form: compound = COc1cc2c(ccc3c4cc(OC)c(OC)cc4c[n+](C)c23)cc1O [FAGARONINE] ; pIC50 = 4.59

----------
inhibition by entry:
# target_or_test_system: UniProtKB Q72547
# assay_method_text: Inhibition of HIV1 RT at 200 ug/ml
Structures can show the parent of a compound that is named as a salt.
Kindly answer with a numeric value in %, unit omitted.

molecule: COc1cc2c(cc1OC)[C@@H]1Cc3ccc(OC)c(O)c3CN1CC2 [TETRAHYDROPALMATRUBINE]
inhibition (%): 25

The molecule CC[C@H]1CN2CCc3cc(OC)c(OC)cc3[C@@H]2C[C@@H]1CC1=NCCc2cc(O)c(OC)cc21 showed inhibition equal to 20

inhibition in this record for COc1ccc2c(c1OC)CN1CCc3cc4c(cc3C1C2)OCO4 (configuration not stated) [TETRAHYDROBERBERINE] : 25

Input CC[C@H]1CN2CCc3cc(OC)c(OC)cc3[C@@H]2C[C@@H]1C[C@H]1NCCc2cc(O)c(OC)cc21 [CEPHAELINE DIHYDROCHLORIDE] . Output inhibition: 20

----------
# target_or_test_system: Human immunodeficiency virus type 1 reverse transcriptase (Human immunodeficiency virus 1)
# condition_set: read-out: IC50 (converted)
Structures can show the parent of a compound that is named as a salt.
measured_quantity: IC50

molecule: COC(=O)C[C@](O)(CCCC(C)(C)O)C(=O)O[C@@H]1C(OC)=C[C@]23CCCN2CCc2cc4c(cc2[C@H]13)OCO4 [OMACETAXINE MEPESUCCINATE]
reported: > 367 µM

Reported IC50 of COC(=O)C1=CCCN(C)C1 [ARECOLINE HYDROBROMIDE] : > 847 µM

Recorded IC50 (molecule COc1cc2c(cc1O)CC[n+]1cc3c(OC)c(OC)ccc3cc1-2 [JATRORRHIZINE CHLORIDE] ): 190 µM

Record summary for O=c1ccc2cc(O[C@@H]3O[C@H](CO)[C@@H](O)[C@H](O)[C@H]3O)c(O)cc2o1 : reported IC50 = > 588 µM

Sure, the documented IC50 for COC(=O)[C@@]12OC[C@]34[C@H]([C@@H](O)[C@@H]1O)[C@@]1(C)CC(=O)C(O)=C(C)[C@@H]1C[C@H]3OC(=O)[C@H](OC(=O)/C=C(\C)C(C)C)[C@@H]24 [BRUCEANTIN] is > 365 µM

Per the record, COc1cc2c(cc1O)C[C@H]1c3c(cc(O)c(OC)c3-2)CCN1C has IC50 of > 611 µM

Briefly, IC50 measured for COc1ccc2c(c1OC)-c1cc(ccc1O)/C=C\C(=O)O[C@H]1C[C@@H]3CCCCN3[C@H]2C1 : > 460 µM

Input COC(=O)[C@@H]1[C@@H](OC)[C@H](OC(=O)c2cc(OC)c(OC)c(OC)c2)C=C2CN3CCc4c([nH]c5ccccc45)[C@@H]3C[C@@H]21 [DESERPIDEINE HYDROCHLORIDE] . Output IC50: > 326 µM

Looking up COc1ccc2c(c1OC)C(=O)O[C@@H]2[C@H]1c2cc3c(cc2CCN1C)OCO3 [HYDRASTINE] , I found its IC50 recorded as > 522 µM

Reported IC50 ( CC1(C)CC[C@]2(C)CC[C@]3(C)C(=CC[C@@H]4[C@@]5(C)CC[C@H](O)C(C)(C)[C@@H]5CC[C@]43C)[C@@H]2C1 ) = > 469 µM

// C=C(C)[C@H]1Cc2c(ccc3c2O[C@@H]2COc4cc(OC)c(OC)cc4[C@@H]2C3=O)O1 : IC50 value = > 507 µM

Reported IC50 of CC1(C)CC[C@]2(CO)[C@H](O)C[C@]3(C)C(=CC[C@@H]4[C@@]5(C)CC[C@H](O)C(C)(C)[C@@H]5CC[C@]43C)[C@@H]2C1 : > 436 µM

----------
# target_or_test_system: Human immunodeficiency virus type 1 reverse transcriptase (Human immunodeficiency virus 1, UniProt Q72547)
# condition_set: read-out: IC50 (converted)
measured_quantity: IC50

Example entries begin here.
molecule: COc1cc2c(cc1O)-c1cc3ccc(OC)c(OC)c3c[n+]1CC2 [COLUMBAMINE IODIDE]
IC50: 125 µM
--
molecule: CC[C@H](/C=C/[C@@H](C)[C@H]1CC[C@H]2[C@@H]3CC=C4C[C@@H](O)CC[C@]4(C)[C@H]3CC[C@]12C)C(C)C
IC50: > 485 µM
--
molecule: COc1ccc2c(c1OC)CN1CCc3cc4c(cc3C1=C2)OCO4 [DIHYDROBERBERINE]
IC50: > 593 µM

For record CC1=C(C)C(=O)O[C@@H]([C@](C)(O)[C@]2(O)CC[C@@]3(O)[C@@H]4C[C@H]5O[C@]56[C@@H](O)C=CC(=O)[C@]6(C)[C@H]4CC[C@]23C)C1 the listed IC50 is > 398 µM

Form: molecule = COc1cc2cc(c1Cl)N(C)C(=O)C[C@H](OC(=O)[C@H](C)N(C)C(C)=O)[C@]1(C)O[C@H]1[C@H](C)[C@@H]1C[C@@](O)(NC(=O)O1)[C@H](OC)/C=C/C=C(\C)C2 ; IC50 = > 289 µM

Entry CC[C@H]1CN2CCc3cc(OC)c(OC)cc3[C@@H]2C[C@@H]1C[C@H]1NCCc2cc(OC)c(OC)cc21 , IC50 reported as > 387 µM

// COc1ccc2[nH]c3c(C)c4ccncc4c(C)c3c2c1 : IC50 value = < 543 µM

----------
Listing of entries alongside the reported IC50.
# target_or_test_system: Human immunodeficiency virus type 1 reverse transcriptase (Human immunodeficiency virus 1, UniProt Q72547)
# condition_set: read-out: IC50 (converted)
Where a name gives a salt, the structure may show the parent alone.

Use the examples below as a reference point.
molecule: CC(C)(O)CC[C@@H](O)[C@](C)(O)[C@H]1CC[C@@]2(O)C3=CC(=O)[C@]4(O)C[C@@H](O)[C@@H](O)C[C@]4(C)[C@H]3CC[C@]12C
IC50: > 403 µM
--
molecule: CC[C@]1(O)C[C@H]2CN(CCc3c([nH]c4ccccc34)[C@@](C(=O)OC)(c3cc4c(cc3OC)N(C=O)[C@H]3[C@@](O)(C(=O)OC)[C@H](OC(C)=O)[C@]5(CC)C=CCN6CC[C@]43[C@@H]65)C2)C1
IC50: > 242 µM
--
molecule: C=C[C@H]1C[N@@]2CC[C@H]1C[C@@H]2[C@@H](O)c1ccnc2ccc(OC)cc12 [QUINIDINE SULFATE]
IC50: > 511 µM

Memo: C=C(C)[C@H]1Cc2c(ccc3c2O[C@@H]2COc4cc(OC)c(OC)cc4[C@]2(O)C3=O)O1 , reported IC50: > 487 µM

Input COc1ccc2cc3[n+](cc2c1OC)CCc1cc2c(cc1-3)OCO2 [BERBERINE CHLORIDE] . Output IC50: 269 µM
